Sourced from PubChem BioAssay

test: CREB reporter modulators under forskolin, primary screen, cell-based, PC12, CRE-LacZ reporter, forskolin-stimulated (AID 1146); settings: luminescence, 4.5 h, higher = more signal, called active from +8 up or from −8 down;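 also: PC12 cells with 6xCRE LacZ reporter stimulated by forskolin 10 µM; beta-galactosidase reporter signal reflecting CREB driven transcription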

COMPOUND	z-score
[N-]=[N+]=Nc1ccccc1[C@H]1OC(c2ccc(OCCCO)cc2)=N[C@@]1(Cc1ccccc1)C(=O)N1CCCCC1	-0.585
CC(C)C(=C=CC[C@H](O)c1cccc(OCCO)c1)C[C@H](O)c1cc(Cl)cc(Cl)c1O	0.813
O=C1OCC=C[C@H]2OC34C=CCN(Cn5nnc6ccccc65)C(=O)[C@H]3N(CCCO)C(=O)[C@@H]4[C@@H]12 (stereo not given in full)	-0.247
CO[C@H]1O[C@H](CO)[C@@H](OC(=O)Nc2ccc3c(c2)OCO3)[C@H](OC(=O)c2cc3ccccc3[nH]2)[C@H]1OC(=O)c1cc2ccccc2[nH]1	-1.29
COC(=O)[C@@]1(Cc2ccc(OC)cc2)[C@H]2c3cc(C(=O)N4CCCC4)n(Cc4c(-c5ccccc5)noc4C)c3C[C@H]2CN1C(=O)c1ccccc1	-0.531
CC(C)(C)OC(=O)CC[C@]1(C(=O)NCc2ccccc2)N=C(c2ccc(OCCCO)cc2)O[C@H]1c1ccccc1CN=[N+]=[N-]	-0.156
Cc1ccc(S[C@]2(C(=O)NCC(F)(F)F)CC(=O)N(Cc3ccccc3)[C@@H]2c2ccc(CO)cc2I)cc1	1.83
NC(N)=NCCCn1cc(CNC(=O)[C@@H](N)Cc2ccccc2)nn1	0.35
CCCCN1CC=CC23O[C@@H]4/C=C\CCC(C)OC(=O)C4[C@H]2C(=O)N(C(CO)C(C)C)[C@@H]3C1=O (stereo not given in full)	-0.651
C=CCC(OC(C)=O)[C@@H]1[C@@H](N(Cc2cccc3ccccc23)C(=O)Cc2ccc(OC)cc2)c2cc(OCCCO)ccc2N1C(=O)c1ccc2ccccc2n1 (stereo not given in full)	1.3
C=C(C)C1CCC(C(O)C2C=CC3C(=O)N(C)C(=O)C3N2N2CCCCC2)CC1 (stereo not given)	0.924
[N-]=[N+]=NCc1ccccc1[C@@H]1OC(c2ccc(OCCCO)cc2)=N[C@]1(CCS(=O)(=O)c1ccccc1)C(=O)NCC(O)CO (stereo not given in full)	-1.17
CCC(CC)C(O)C1C=CC2C(=O)N(c3ccccc3)C(=O)C2N1Nc1ccc(C(C)C)cc1 (stereo not given)	-0.156
C[C@]1(C(=O)NC2CC2)c2ccccc2C(=O)N(Cc2ccccc2)[C@H]1c1ccc(CO)cc1	-0.957
CCOC(=O)c1ccc(NC(=O)O[C@H]2[C@H](OC(=O)Nc3ccc4c(c3)OCO4)[C@@H](OC(=O)Nc3ccc4c(c3)OCO4)[C@@H](OC)O[C@@H]2CO)cc1	-0.557
COC(=O)[C@@]1(Cc2ccc(OC)cc2)[C@H]2c3cc(C(=O)N(C)C)n(CCO)c3C[C@H]2CN1C(=O)c1ccccc1	1.23
C=CCN1C(=O)[C@@]2(CCS(=O)(=O)c3ccccc3)N=C(c3ccc(OCCCO)cc3)O[C@H]2c2ccccc21	-1.28
COCCCNC(=O)[C@@]1(Cc2ccccc2N=[N+]=[N-])N=C(c2ccc(OCCCO)cc2)O[C@H]1c1ccccc1	-0.472
COCC1=C2[C@@H](CCc3ccccc3)OB(O)C[C@@H]2[C@@H]2C(=O)C=CC(=O)[C@@H]2C1	22.8
CC1=C([C@H](O)CCc2ccccc2)[C@H](CO)[C@@H]2C(=O)N(C)C(=O)[C@@H]2C1	-0.33
CC(CO)N1C(=O)[C@@H]2[C@H]3C(=O)OCC=C[C@H]3OC23C=CCN(CCN2CCOCC2)C(=O)[C@@H]13 (stereo not given in full)	0.0027
C=C(/C(=C/C[C@@H](OC(C)=O)c1cccc(OCCO)c1)c1cc(C(=O)OC)ccc1OC)C(C)C	0.32
CCOC(=O)C1=CC[C@@H](c2ccc(OCc3ccccc3)c(OC)c2)N(S(=O)(=O)c2ccc(C)cc2)[C@H]1c1ccc(SC)cc1	0.137
O=C(CS)NCCCCCNC(=O)[C@@H]1C[C@@H]2C(=O)N3CCC[C@H]3C(=O)N2[C@@H]1c1cccc(OCCO)c1	-0.16
C[C@H]1NC(=O)[C@@]23C(=O)N[C@@H](Cc4ccccc4)C2[C@H](C)[C@@]2(C)O[C@H]2C3/C=C/C/C=C\CNC(=O)[C@H](Cc2ccccc2)NC1=O (stereo not given in full)	-0.0421
COC(=O)[C@@]1(Cc2ccc(OC)cc2)[C@@H]2C(=CC(=O)[C@H]2CC(=O)C(=O)N(C)C)CN1C(=O)c1ccccc1	0.0777
COCCOC(=O)N1C(=O)[C@@]2(c3cc(C#CCNC(N)=O)ccc31)[C@H](C(=O)N1CCc3cc(OC)c(OC)cc3C1)[C@H]1C(=O)O[C@H](c3ccccc3)[C@H](c3ccccc3)N1[C@@H]2c1ccccc1OCCO	-0.979
CN1C(=O)C2C=CC(C(O)COCc3ccccc3)N(N(c3ccccc3)c3ccccc3)C2C1=O (stereo not given)	-0.637
CC=CC(O)C1C=CC2C(=O)N(c3ccccc3)C(=O)C2N1Nc1ccccc1F (stereo not given)	1.23
CN(C)CCCNC(=O)[C@@]1(C)c2ccccc2C(=O)N(Cc2ccccc2)[C@H]1c1ccc(CO)cc1	0.261
